# test-details: Inhibition of quorum sensing system in Pseudomonas aeruginosa PAO1 transfected with lasB-GFP by measuring reduction in fluorescence intensity measured for 16 hrs by fluorescence assay
Listed next: entries and their corresponding IC50.
Number in µM, nothing else.

query_smiles=O=C(NCc1cccc(I)c1)c1ccccc1[N+](=O)[O-] observed_property=IC50 data_value=6.5
query_smiles=O=C(NCc1cc(F)cc(F)c1)c1ccccc1[N+](=O)[O-] observed_property=IC50 data_value=6.6

Now examine the next entry.
Exercise: Look up IC50: `O=C(NCCc1ccc(Br)cc1)c1ccccc1[N+](=O)[O-]`
Solution: 4.8

* * *

# tgt: Transcriptional regulator MvfR (Pseudomonas aeruginosa PA14, UniProt A0A072ZLE6)
# test-details: Antagonist activity at PqsR in wild-type Pseudomonas aeruginosa PAO1-L assessed as reduction in HHQ level at 0.1 uM by LCMS/MS analysis
observed-property: IC50

Illustrative cases are given below, each with its answer.
query_smiles=O=C(N[C@H]1CCOC1=O)OCc1ccc([N+](=O)[O-])cc1 data_value="22 µM"
query_smiles=CCCCSC(=O)N[C@H]1CCOC1=O data_value="45 µM"
query_smiles=CCCCCCOC(=O)N[C@H]1CCOC1=O data_value="73 µM"

Now examine the next entry.
Exercise: Under Transcriptional regulator MvfR (Pseudomonas aeruginosa PA14, UniProt A0A072ZLE6): IC50 value of `O=C(N[C@H]1CCOC1=O)SCc1ccc([N+](=O)[O-])cc1` ?
Solution: 23 µM

* * *

# tgt: Transcriptional regulator MvfR (Pseudomonas aeruginosa PA14, UniProt A0A072ZLE6)
# Sequence (A0A072ZLE6 whole entry): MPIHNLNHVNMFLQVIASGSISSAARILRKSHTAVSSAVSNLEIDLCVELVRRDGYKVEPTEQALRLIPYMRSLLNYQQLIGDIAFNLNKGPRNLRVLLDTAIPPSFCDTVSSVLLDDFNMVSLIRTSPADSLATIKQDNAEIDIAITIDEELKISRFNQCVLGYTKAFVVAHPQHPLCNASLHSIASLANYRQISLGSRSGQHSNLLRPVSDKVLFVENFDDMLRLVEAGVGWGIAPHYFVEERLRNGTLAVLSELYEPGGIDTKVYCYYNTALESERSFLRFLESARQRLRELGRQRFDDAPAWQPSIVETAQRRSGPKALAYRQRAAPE
# test-details: Inhibition of PqsR-mediated quorum sensing system in Pseudomonas aeruginosa PAO1 assessed as inhibition of pyocyanin production at 20 uM incubated for 24 hrs by absorbance based assay
Label fulfilled when IC50 < 500 nM; otherwise not fulfilled.

Solved cases below.
compound=FC(F)(F)c1cc(NCc2cn(-c3ccc(Oc4ccccc4)cc3)nn2)ccn1 assigned_label=fulfilled
compound="CCCCCCc1cncn1C1CCOC1=O (stereo not given)" assigned_label="not fulfilled"
compound=Nc1cc(NCC(=O)Nc2ccc(F)cc2)cc(C(F)(F)F)n1 assigned_label=fulfilled
compound=Fc1ccc(-n2cc(CNc3ccnc(C(F)(F)F)c3)nn2)cc1 assigned_label=fulfilled

Here is the next item to consider.
Exercise: IC50 under 500 nM? Item: `CCCCCCc1cncn1CC(=O)OCC`
Solution: not fulfilled

* * *

# tgt: Transcriptional activator protein TraR (Agrobacterium tumefaciens, UniProt P33905)
# Sequence (P33905 whole entry): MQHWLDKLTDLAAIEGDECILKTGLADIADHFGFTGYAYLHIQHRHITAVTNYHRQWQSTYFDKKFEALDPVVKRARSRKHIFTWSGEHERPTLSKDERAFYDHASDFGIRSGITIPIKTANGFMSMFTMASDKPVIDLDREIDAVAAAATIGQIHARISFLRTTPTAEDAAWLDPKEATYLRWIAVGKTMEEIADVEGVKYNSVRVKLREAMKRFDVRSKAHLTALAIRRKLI
observed-property: pIC50
Scale: negative log10 of molar concentration, which is what pIC50 denotes.

Exercise: Look up pIC50: `CCCCS(=O)(=O)N[C@H]1CCOC1=O`
Solution: 6.22

* * *

# tgt: Transcriptional regulator MvfR (Pseudomonas aeruginosa PA14, UniProt A0A072ZLE6)
# test-details: Antagonist activity at PqsR in wild-type Pseudomonas aeruginosa PAO1 assessed as reduction in AQ level
Listed next: entries and their corresponding pIC50.
Scale: negative log10 of molar concentration, which is what pIC50 denotes.

query_smiles=CCCCCCCCCCCCn1nnc(CC(=O)O)n1 data_value=7.52

Exercise: Look up pIC50: `O=C(Oc1c(Br)cc(Br)cc1CNC(=O)c1ccccc1[N+](=O)[O-])c1ccccc1Cl`
Solution: 7.42

* * *

# test-details: Inhibition of quorum sensing system in Vibrio fischeri
# Set-up: species or system Aliivibrio fischeri
Listed next: entries and their corresponding pIC50.
Scale: negative log10 of molar concentration, which is what pIC50 denotes.

Exercise: Look up pIC50: CCCCCS(=O)(=O)NC1CCOC1=O (configuration not stated)
Solution: 5.70

Exercise: Look up pIC50: O=C1OCCC1NS(=O)(=O)CCc1ccccc1 (configuration not stated)
Solution: 5.52

* * *

Listed next: entries and their corresponding Activity.
# System: Pseudomonas aeruginosa
# test-details: Antibiofilm activity against Pseudomonas aeruginosa PAO1 assessed as inhibition of biofilm formation at 50 uM incubated for 24 hrs by crystal violet staining based absorbance assay relative to control
# Type: functional
# Set-up: scale not given: the % may be the effect or the level left
Number in %, nothing else.

query_smiles=O=C(Nc1cc(=O)c2ccccc2o1)c1ccc(F)cc1 tgt="Pseudomonas aeruginosa" data_value=65.3
query_smiles=O=C(Nc1cc(=O)c2ccccc2o1)c1ccc([N+](=O)[O-])cc1[N+](=O)[O-] tgt="Pseudomonas aeruginosa" data_value=90
query_smiles=O=C(Nc1ccc(F)cc1)c1cc(=O)c2ccccc2o1 tgt="Pseudomonas aeruginosa" data_value=73.3

Now examine the next entry.
Exercise: Look up Activity: `O=C(Nc1ccc([N+](=O)[O-])cc1)c1cc(=O)c2ccccc2o1`
Solution: 58.7

* * *

# tgt: Transcriptional activator protein LasR (Pseudomonas aeruginosa (strain ATCC 15692 / PAO1 / 1C / PRS 101 / LMG12228))
# Sequence (P25084 whole entry): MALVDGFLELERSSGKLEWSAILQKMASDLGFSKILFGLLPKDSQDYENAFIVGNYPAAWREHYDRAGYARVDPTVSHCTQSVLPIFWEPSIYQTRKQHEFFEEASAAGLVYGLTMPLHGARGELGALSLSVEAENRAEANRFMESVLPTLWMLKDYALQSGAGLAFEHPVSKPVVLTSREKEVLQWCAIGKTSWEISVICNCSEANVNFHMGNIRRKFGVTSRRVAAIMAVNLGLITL
# test-details: Inhibition of LasR-mediated quorum sensing system in Pseudomonas aeruginosa PAO1 assessed as inhibition of pyocyanin production incubated for 24 hrs by absorbance based assay
Listed next: entries and their corresponding IC50.
Number in µM, nothing else.

Illustrative cases are given below, each with its answer.
query_smiles=C[C@@H]1O[C@H](CNC(=O)/C=C/c2ccccc2)[C@@H](O)[C@H](O)[C@@H]1O observed_property=IC50 unit_name=µM data_value=88
query_smiles=CO[C@H]1O[C@H](CNS(=O)(=O)c2c(C)cc(C)cc2C)[C@@H](O)[C@H](O)[C@@H]1O observed_property=IC50 unit_name=µM data_value=4

Exercise: Look up IC50: `Cc1cc(C)c(S(=O)(=O)NC[C@H]2O[C@@H](C)[C@@H](O)[C@@H](O)[C@@H]2O)c(C)c1`
Solution: 3

* * *

# test-details: Inhibition of quorum sensing system in Pseudomonas aeruginosa PAO1
Listed next: entries and their corresponding pIC50.
Scale: negative log10 of molar concentration, which is what pIC50 denotes.

query_smiles=CCCCCCCCCCS(=O)(=O)N[C@H]1CCOC1=O data_value=5.96

Now examine the next entry.
Exercise: Look up pIC50: `CCCCCCCCCS(=O)(=O)N[C@H]1CCOC1=O`
Solution: 6.00

* * *

Listed next: entries and their corresponding pIC50.
# tgt: Transcriptional regulator MvfR (Pseudomonas aeruginosa PA14, UniProt A0A072ZLE6)
# Sequence (A0A072ZLE6 whole entry): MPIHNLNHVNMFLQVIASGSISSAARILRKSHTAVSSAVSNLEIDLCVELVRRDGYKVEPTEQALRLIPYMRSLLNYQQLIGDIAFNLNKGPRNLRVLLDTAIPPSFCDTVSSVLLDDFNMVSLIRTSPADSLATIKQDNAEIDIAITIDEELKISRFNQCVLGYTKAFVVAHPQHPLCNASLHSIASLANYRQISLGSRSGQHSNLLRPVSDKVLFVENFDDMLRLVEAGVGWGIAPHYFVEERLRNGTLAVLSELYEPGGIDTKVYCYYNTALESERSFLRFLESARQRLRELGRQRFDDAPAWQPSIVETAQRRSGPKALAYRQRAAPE
# test-details: Antagonist activity at PqsR in Pseudomonas aeruginosa IPCD48 clinical isolate assessed as reduction in PQS level at 0.1 uM by LCMS/MS analysis
Scale: negative log10 of molar concentration, which is what pIC50 denotes.

query_smiles=CCOC(=O)CC(=O)c1ccc(F)cc1 data_value=4.64
query_smiles=O=C(CN1CCOCC1)Oc1cccc([N+](=O)[O-])c1 data_value=4.66

Now examine the next entry.
Exercise: Look up pIC50: `CCOC(=O)CC(=O)c1ccccc1`
Solution: 4.12
